- System: OVCAR-3 ovarian
- Measurement Description: NCI tumour cell line growth inhibition, 48 h; in the data active = GI50 below about 0.43 µM; inactive = the rest
# output must be one of yes = active, no = inactive

Below, 3 compounds whose answers are already recorded.
INSERT INTO assay_data (compound, class_assignment) VALUES
  ('Cc1cn2c(=O)n(c1=O)Cc1ccccc1C2', 'no'),
  ('C=C(C)[C@@H]1CC[C@]2(C(=O)NCCNCCNCCN)CC[C@]3(C)[C@H](CC[C@@H]4[C@@]5(C)CCC(=O)C(C)(C)[C@@H]5CC[C@]43C)[C@@H]12', 'no'),
  ('COc1cc2c(cc1OC)-c1c(c3ccc([N+](=O)[O-])cc3c(=O)n1CCCN)C2=O', 'no');

Asked: Please indicate how the test categorized `COc1ccc(-n2c(C)nc3c(c(C)nn3-c3ccccc3)c2=O)cc1` .
Given back: yes

Asked: Please indicate how the test categorized `CCC[CH2][Sn]1([CH2]CCC)[O]C(=O)CN=Cc2ccccc2[O]1` .
Given back: no

Asked: Please indicate how the test categorized CNCCOC(=O)/C=C1/CCC2C(C(O)CC3C(C)(C(=O)OC)CCCC23C)C1C (centres undefined) .
Given back: yes

Asked: Please indicate how the test categorized `Cc1cc2nc3c4cccc(O)c4n(CCN(C)C)c3nc2cc1C` .
Given back: no

Asked: Please indicate how the test categorized `Cc1ccc(Oc2nc3ccccc3cc2-c2nnc(Cn3c(COc4ccccc4)nc4ccccc43)o2)cc1` .
Given back: no

Asked: Please indicate how the test categorized `Oc1cc(Cl)ccc1Cc1ccc(Cl)cc1O` .
Given back: no

Source listed as PubChem BioAssay (NCI).
